# Protocol Description: Solubility of pydiflumetofen in solvents suitable for emulsion production
# Assay type: physicochemical
# Condition Info: solvent Dowanol DPM
Measured Parameter: Solubility of pydiflumetofen at 25° C. % (%)
Write the answer as a number in %, unit excluded.

Query string: Entry CON(C(=O)c1cn(C)nc1C(F)F)C(C)Cc1c(Cl)cc(Cl)cc1Cl (stereo not shown) has what Solubility of pydiflumetofen at 25° C. %?
Result string: 3.77

----------
# Protocol Description: Solubility of pydiflumetofen in solvents suitable for emulsion production
# Type: physicochemical
# Condition Info: solvent Octan-1-ol
Measured Parameter: Solubility of pydiflumetofen at 25° C. % (%)
Give just the numeric value; % need not be written.

Query string: I am curious: what Solubility of pydiflumetofen at 25° C. % value has been reported for CON(C(=O)c1cn(C)nc1C(F)F)C(C)Cc1c(Cl)cc(Cl)cc1Cl (stereo not shown) ?
Result string: 0.63

----------
# Protocol Description: Solubility of pydiflumetofen in solvents suitable for emulsion production
# Assay type: physicochemical
# Condition Info: solvent Tributyl phosphate
Measured Parameter: Solubility of pydiflumetofen at 25° C. % (%)
Dear colleague, please return just the value in %, with no unit written.

Query string: What value of Solubility of pydiflumetofen at 25° C. % has been recorded for this entry: CON(C(=O)c1cn(C)nc1C(F)F)C(C)Cc1c(Cl)cc(Cl)cc1Cl (stereo not shown)
Result string: 6.18

----------
# Protocol Description: Solubility of pydiflumetofen in solvents suitable for emulsion production
# Format: physicochemical
# Condition Info: solvent Solvesso 200 ND/ULN
# Source text: The choice of solvent for an agrochemical EC formulation is important and dependent upon the individual active ingredient that is the solute. In addition, the choice of solvent for an emulsifiable concentrate formulation can have an impact on the physical stability, application properties, and biological performance of the agrochemical formulation. […]
Measured Parameter: Solubility of pydiflumetofen at 25° C. % (%)
The reply should contain only the number, in %.

Query string: What does the record list as Solubility of pydiflumetofen at 25° C. % for CON(C(=O)c1cn(C)nc1C(F)F)C(C)Cc1c(Cl)cc(Cl)cc1Cl (stereo not shown) ?
Result string: 5.85

----------
# Protocol Description: Solubility of pydiflumetofen in solvents suitable for emulsion production
# Type: physicochemical
# Condition Info: solvent THFA (Tetrahydrofurfuryl acetate)
Measured Parameter: Solubility of pydiflumetofen at 25° C. % (%)
Entry rule: numbers only, all in %.

Query string: What value of Solubility of pydiflumetofen at 25° C. % has been reported for the following compound? CON(C(=O)c1cn(C)nc1C(F)F)C(C)Cc1c(Cl)cc(Cl)cc1Cl (stereo not shown) [pydiflumetofen]
Result string: 9.7

----------
# Protocol Description: Solubility of pydiflumetofen in solvents suitable for emulsion production
# Type: physicochemical
# Condition Info: solvent Trimethylcyclohexanone
Measured Parameter: Solubility of pydiflumetofen at 25° C. % (%)
# unit: % | format: bare number

Query string: Data request, read-out Solubility of pydiflumetofen at 25° C. %, for CON(C(=O)c1cn(C)nc1C(F)F)C(C)Cc1c(Cl)cc(Cl)cc1Cl (stereo not shown)
Result string: 10.2

----------
# Protocol Description: Solubility of pydiflumetofen in solvents suitable for emulsion production
# Type: physicochemical
# Condition Info: solvent Dimethyl lactamide
Measured Parameter: Solubility of pydiflumetofen at 25° C. %
Please provide the amount together with its unit, number first.

Query string: Could you share which Solubility of pydiflumetofen at 25° C. % value was measured for CON(C(=O)c1cn(C)nc1C(F)F)C(C)Cc1c(Cl)cc(Cl)cc1Cl (stereo not shown) [pydiflumetofen] ?
Result string: 9.65%

----------
# Protocol Description: Solubility of pydiflumetofen in solvents suitable for emulsion production
# Type: physicochemical
# Condition Info: solvent Ethyl lactate
Measured Parameter: Solubility of pydiflumetofen at 25° C. % (%)
Field format: number, assumed %, no unit text.

Query string: For the molecule CON(C(=O)c1cn(C)nc1C(F)F)C(C)Cc1c(Cl)cc(Cl)cc1Cl (stereo not shown) [pydiflumetofen] , what Solubility of pydiflumetofen at 25° C. % is on record?
Result string: 5.74

----------
# Protocol Description: Solubility of pydiflumetofen in solvents suitable for emulsion production
# Assay type: physicochemical
# Condition Info: solvent Acetophenone
Measured Parameter: Solubility of pydiflumetofen at 25° C. % (%)
Numeric answer only, unit % assumed.

Query string: Please look up its Solubility of pydiflumetofen at 25° C. %: CON(C(=O)c1cn(C)nc1C(F)F)C(C)Cc1c(Cl)cc(Cl)cc1Cl (stereo not shown)
Result string: 17.3

----------
# Protocol Description: Solubility of pydiflumetofen in solvents suitable for emulsion production
# Format: physicochemical
# Condition Info: solvent Methyl benzoate
Measured Parameter: Solubility of pydiflumetofen at 25° C. % (%)
Only the number, expressed in %, is required.

Query string: Query: Solubility of pydiflumetofen at 25° C. %; subject: CON(C(=O)c1cn(C)nc1C(F)F)C(C)Cc1c(Cl)cc(Cl)cc1Cl (stereo not shown) [pydiflumetofen]
Result string: 15.1

----------
# Protocol Description: Solubility of pydiflumetofen in solvents suitable for emulsion production
# Format: physicochemical
# Condition Info: solvent Triethyl phosphate
Measured Parameter: Solubility of pydiflumetofen at 25° C. % (%)
Answer in %, number only, no unit symbol.

Query string: Need Solubility of pydiflumetofen at 25° C. % of CON(C(=O)c1cn(C)nc1C(F)F)C(C)Cc1c(Cl)cc(Cl)cc1Cl (stereo not shown) [pydiflumetofen] , thanks.
Result string: 8.82
